Documented log10 of IC50 across a set of compounds
- Tested on: A549 human lung carcinoma cells
- protocolSummary: MTT cytotoxicity on A549 cells
- Assay type: cell-based
- assayConditions: 50% viability after 48 h
Scale type: logarithmic (base 10). Underlying IC50 unit: µg/mL.

INSERT INTO results (compound, endpointvalue) VALUES
  ('C=C(C)C(CC=C(C)C)CC1(CC=C(C)C)C(=O)C(C(CCC)CC(=O)O)=C(O)C2=C1O[C@H](C)[C@@H](C)C2=O (stereo partly shown) [Inocalophyllin B]', 0.62),
  ('CCCc1cc(=O)oc2c3c(c4c(c12)OC(C)(C)C=C4)O[C@H](C)[C@@H](C)[C@@H]3O [Calanolide A]', 0.91);

Entry C/C=C(\C)C(=O)c1c(OC)c2c(c3c(-c4ccccc4)cc(=O)oc13)OC(C)(C)C=C2 [Calophyllolide] ; assay system A549 human lung carcinoma cells; log10 of IC50 recorded at 0.49

Entry CCC(C)c1cc(=O)oc2c3c(c4c(c12)OC(C)(C)C=C4)OC(C)C(C)C3O (stereo not shown) [Tamanolide D] ; assay system A549 human lung carcinoma cells; log10 of IC50 recorded at 0.97

Entry CCCc1cc(=O)oc2c3c(c4c(c12)OC(C)(C)C=C4)O[C@H](C)[C@@H](C)C3=O [12-Oxocalanolide A] ; assay system A549 human lung carcinoma cells; log10 of IC50 recorded at 0.28

Entry C[C@@H]1[C@@H](C)Oc2c3c(c4c(-c5ccccc5)cc(=O)oc4c2[C@@H]1O)OC(C)(C)C=C3 [Inophyllum P] ; assay system A549 human lung carcinoma cells; log10 of IC50 recorded at 1.05

Entry C[C@@H]1C(=O)c2c(c3c(c4c(-c5ccccc5)cc(=O)oc24)OC(C)(C)C=C3)O[C@@H]1C [Inophyllum E] ; assay system A549 human lung carcinoma cells; log10 of IC50 recorded at 1.65

---

- protocolSummary: DPPH assay
- assayConditions: metabolites and standards, in dichloromethane
Documented log10 of IC50 across a set of compounds
Scale type: logarithmic (base 10). Underlying IC50 unit: µM.

INSERT INTO measurements (compound, resulttype, endpointvalue) VALUES
  ('O=c1c(O)c(-c2ccc(O)c(O)c2)oc2cc(O)cc(O)c12', 'log10 of IC50', 1.15),
  ('C[C@H]1Oc2c3c(c4c(-c5ccccc5)cc(=O)oc4c2C(=O)[C@@H]1C)OC(C)(C)C=C3', 'log10 of IC50', 2.85),
  ('C=C(C)C(CC=C(C)C)CC1(CC=C(C)C)C(=O)C(C(CCC)CC(=O)O)=C(O)C2=C1O[C@H](C)[C@@H](C)C2=O (some centres unmarked)', 'log10 of IC50', 2.77),
  ('C[C@@H]1C(=O)c2c(c3c(c4c(-c5ccccc5)cc(=O)oc24)OC(C)(C)C=C3)O[C@@H]1C', 'log10 of IC50', 2.68),
  ('COc1ccc(O)c(C(C)(C)C)c1 [BHA, reference compound]', 'log10 of IC50', 1.98);

Now turn to the next compound.
Sample CCC(C)c1cc(=O)oc2c3c(c4c(c12)OC(C)(C)C=C4)OC(C)C(C)C3O (centres unmarked) [Tamanolide D] ; log10 of IC50 observed: 2.89

---

- protocolSummary: DPPH assay
- assayConditions: metabolites and standards, in dichloromethane
- Experimental: Experiments were performed according to previous procedures. […] The absorbance was read at 517 nm on a microplate reader 3 min after sample addition. […] The DPPH inhibition was calculated as follows:Inhibition (%) = [100 × (A0 − A)/A0](1)
Documented IC50 across a set of compounds
The reply should contain only the number, in µM.

These solved cases illustrate the format of a correct answer.
INSERT INTO results (compound, resulttype, endpointvalue) VALUES
  ('O=C(O)/C=C/c1ccc(O)c(O)c1', 'IC50', 18.1),
  ('Oc1ccc2c(c1)OCO2 [Sesamol, reference compound]', 'IC50', 66.9),
  ('C[C@@H]1[C@@H](C)Oc2c3c(c4c(-c5ccccc5)cc(=O)oc4c2[C@@H]1O)OC(C)(C)C=C3', 'IC50', 26.2);

Now turn to the next compound.
Sample Cc1c(C)c2c(c(C)c1O)CCC(C)(C(=O)O)O2 (stereo not shown) [Trolox, reference compound] ; IC50 observed: 21.2
